# Measurement Description: chemical genetic growth profiling, strain panel (AID 1159580);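 also: tested at 20 µM; growth read once vehicle control cultures reached saturation at 30 °C; 1 = growth at the plate median or of vehicle wells; lower values mean less growth of the strain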
# Setup Conditions: S. cerevisiae deletion strains, growth OD, locus YJL164C, strain tpk1, active compounds read low
Among all 5,500 compounds or so, about 2,000 (36%) were called active. Inconclusive results (about 18%) are left out. The list shows a part of the results.
I'd be grateful if you could share measured normalized growth for these entries.
Numbers only.

O=c1ccc2cc(O[C@@H]3O[C@H](CO)[C@@H](O)[C@H](O)[C@H]3O)c(O)cc2o1 :: 0.991
Cc1nccc2c1[nH]c1ccccc12 :: 0.993
CCCc1nc(C(C)(C)O)c(C(=O)OCc2oc(=O)oc2C)n1Cc1ccc(-c2ccccc2-c2nn[nH]n2)cc1 :: 0.996

Give normalized growth for each of the items listed below.
1. CCCCCN=C(N)N/N=C\c1c[nH]c2ccc(OC)cc12
2. CC(=O)c1ccc2c(c1)N(CCCN(C)C)c1ccccc1S2
3. CSCCC(NC=O)C(=O)NC(CC(C)C)C(=O)NC(Cc1ccccc1)C(=O)O (centres undefined)

Given back:
1: 0.978; 2: 0.99; 3: 1.01

====

# Measurement Description: chemical genetic growth profiling, strain panel (AID 1159580);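 also: tested at 20 µM; growth read once vehicle control cultures reached saturation at 30 °C; 1 = growth at the plate median or of vehicle wells; lower values mean less growth of the strain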
# Setup Conditions: S. cerevisiae deletion strains, growth OD, locus YJL129C, strain trk1, active compounds read low
Hit rate of the full screen: of about 5,500 compounds, about 2,000 (36%) were called active. Roughly 18% stayed inconclusive and do not appear here. The list shows a part of the results.
I'd be grateful if you could share measured normalized growth for these entries.
Give bare numbers.

O=C1c2ccccc2C(=O)c2c1ccc(O)c2O :: 0.33
O=C(O)c1cccc(O)c1O :: 1.04
COc1cc(O)c(C(=O)O)c(O)c1 :: 1
N#Cc1ccc2c(c1)N(CCCN1CCC(O)CC1)c1ccccc1S2 :: 0.994
COC(=O)C[C@H]1C(C)(C)[C@@H](OC(C)=O)[C@@H]2CC3C4CC(=O)O[C@@H](c5ccoc5)[C@]4(C)CCC3[C@@]1(C)C2=O (some centres not stated) :: 1.01

Give normalized growth for each of the items listed below.
1. O=C1c2ccccc2-c2cccc3cccc1c23
2. OC[C@@H](O)C(O[C@@H]1O[C@H](CO)[C@H](O)[C@H](O)[C@H]1O)[C@H](O)[C@@H](O)CO (some centres not stated)

Given back:
[1.02, 0.985]

Give normalized growth for each of the items listed below.
1. CN1CCN(C(c2ccccc2)c2ccccc2)CC1
2. COC(=O)C1=CO[C@@H](O[C@@H]2O[C@H](CO)[C@@H](O)[C@H](O)[C@H]2O)[C@@H]2[C@@H](C)[C@@H](O)C[C@H]12
3. Fc1ccc(C(c2ccc(F)cc2)N2CCN(C/C=C/c3ccccc3)CC2)cc1
4. CCCCCN=C(N)N/N=C\c1c[nH]c2ccc(OC)cc12
5. COc1ccc2c(=O)c(CC(=O)O)coc2c1

Given back:
1: 0.968; 2: 0.986; 3: 0.215; 4: 1.02; 5: 0.996

====

# Measurement Description: chemical genetic growth profiling, strain panel (AID 1159580);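 also: tested at 20 µM; growth read once vehicle control cultures reached saturation at 30 °C; 1 = growth at the plate median or of vehicle wells; lower values mean less growth of the strain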
# Setup Conditions: S. cerevisiae deletion strains, growth OD, locus YDR297W, strain sur2, active compounds read low
Out of some 5,500 compounds screened, about 2,000 (36%) were called active. Inconclusive results (about 18%) are left out. The list shows a part of the results.
Measured Parameter: normalized growth
Answers are plain numbers.

COc1cc(O)c(C)c(O)c1 :: 1.01
O=C(O)c1cc2cc(Cl)ccc2[nH]1 :: 0.997
COc1cc(O)c(C(C)=O)c(OC)c1 :: 1.01

Give normalized growth for each of the items listed below.
1. Cc1cc(C)nc(NS(=O)(=O)c2ccc(N)cc2)n1
2. CC1=C2CCC3C(CC[C@]4(C)C(=O)CCC34)[C@@]2(C)CCC1=O (some centres not stated)
3. COc1c(O)cc(O)cc1O
4. CC(=O)N[C@@H](CC(=O)O)C(=O)O

Given back:
1. 0.983
2. 0.995
3. 0.998
4. 1.02
